All figures here come from patent US10662203B2.

experiment: Lyophilisation solubility assay (LYSA); format: physicochemical; conditions: phosphate buffer, pH 6.5, aqueous buffer, thermodynamic from solid, 0.05 M phosphate buffer, HPLC-UV
measured quantity: solubility thermodynamic (µg/mL)

Below: 4 compounds and their reported solubility thermodynamic.
compound="CNc1cc(F)c(F)c2c1[nH]c1ncc(-c3cnc4c(c3)c(=O)c(C(=O)O)cn4C)c(N3CC4[C@H](CCN4CCCO)C3)c12 (stereo partly drawn)" measurement_unit=µg/mL val=277
compound=CNc1cc(F)c(F)c2c1[nH]c1ncc(-c3cnc4c(c3)c(=O)c(C(=O)O)cn4C)c(N3CCC[C@@H]3CN(C)C)c12 measurement_unit=µg/mL val=389
compound="CNc1cc(F)c(F)c2c1[nH]c1ncc(-c3cnc4c(c3)c(=O)c(C(=O)O)cn4C(C)CO)c(N3CC[C@H]4CN(C)CC43)c12 (stereo partly drawn)" measurement_unit=µg/mL val=273
compound="CNc1cc(F)c(F)c2c1[nH]c1ncc(-c3cnc4c(c3)c(=O)c(C(=O)O)cn4NC)c(N3CCC4CN(C)CCC43)c12 (stereo not drawn)" measurement_unit=µg/mL val=254

1 = CNc1cc(F)cc2c1[nH]c1ncc(-c3cnc4c(c3)c(=O)c(C(=O)O)cn4C)c(N3CCCC(CN(C)C)C3)c12 (stereo not drawn)
2 = CNc1cc(F)c(F)c2c1[nH]c1ncc(-c3cnc4c(c3)c(=O)c(C(=O)O)cn4C)c(N3CC4(CC4)C[C@H]3CN(C)C)c12
Just curious, which one has the larger solubility thermodynamic reading, 1 or 2 ? Selection: enter the item's label.
1

---

# IC50 per entry
system: K. pneumoniae (ATCC10031); test: 50% growth inhibitory concentration (IC50) determination assay; format: cell-based; conditions: Klebsiella pneumoniae, Iso-Sensitest broth, 0.098 = detection limit

compound="CNc1cc(F)c(F)c2c1[nH]c1ncc(-c3cnc4c(c3)c(=O)c(C(=O)O)cn4C)c(N3CC[C@@]4(CN(C)CCO4)C3)c12 [Example 3.16A]" val="< 0.098 µM"
compound="CNc1cc(F)c(F)c2c1[nH]c1ncc(-c3cnc4c(c3)c(=O)c(C(=O)O)cn4NC)c(N3CCC(F)(CN(C)C)C3)c12 (stereo not drawn)" val="< 0.098 µM"

Give IC50 for CNc1cc(F)c(Cl)c2c1[nH]c1ncc(-c3cnc4c(c3)c(=O)c(C(=O)O)cn4C)c(N3CC[C@H]4CN(C)CC43)c12 (stereo partly drawn)
< 0.098 µM

---

The following molecules are shown together with reported IC50 values.
tested on: K. pneumoniae (ATCC10031); assay: 50% growth inhibitory concentration (IC50) determination assay; assay type: cell-based; settings: Klebsiella pneumoniae, Iso-Sensitest broth, 0.098 = detection limit

molecule="CCNc1cc(F)cc2c1[nH]c1ncc(-c3cnc4c(c3)c(=O)c(C(=O)O)cn4CC)c(-n3cc(CN)c(C(F)(F)F)n3)c12 [Example 1.15]" assayed_system="K. pneumoniae (ATCC10031)" measured_quantity=IC50 val="< 0.098 µM"

Give the value of IC50 reported for the following: CNc1cc(F)c(F)c2c1[nH]c1ncc(-c3cnc4c(c3)c(=O)c(C(=O)O)cn4C)c(N3CC[C@H](O)C3)c12 [Example 1.163]
< 0.098 µM

Note down IC50 recorded for CNc1cc(Cl)c(F)c2c1[nH]c1ncc(-c3cnc4c(c3)c(=O)c(C(=O)O)cn4C)c(N3CC[C@H]4CN(C)CC43)c12 (stereo partly drawn) [Example 1.267]
< 0.098 µM

Give recorded IC50. CNc1cc(F)c(F)c2c1[nH]c1ncc(-c3cnc4c(c3)c(=O)c(C(=O)O)cn4NC)c(N3CCC4(CF)CN(C)CC34)c12 (stereo not drawn) [Example 1.125]
< 0.098 µM

Read the entry CNc1cc(F)cc2c1[nH]c1ncc(-c3cnc4c(c3)c(=O)c(C(=O)O)cn4NC)c(N3C[C@H]4OCCN(C)[C@H]4C3)c12 [Example 3.23A] and write its reported IC50.
< 0.098 µM

Check the records and state IC50 for CNc1cc(F)c(F)c2c1[nH]c1ncc(-c3cnc4c(c3)c(=O)c(C(=O)O)cn4Cc3cnco3)c(N(C)C)c12 [Example 1.87]
0.122 µM

---

assay: Cytotoxicity assay (HepG2, CellTiter-Blue cell viability); assay type: cell-based; conditions: human; HepG2 cells, 3 days treatment; "*": the detection limit; read-out: CC50
measured quantity: CC50 at 3 days (µM)
Hi! Could you send only the number? It should be in µM, unit omitted.

Worked set:
compound="CNc1cc(F)c(F)c2c1[nH]c1ncc(-c3cnc4c(c3)c(=O)c(C(=O)O)cn4C)c(N3CC[C@H](CO)C3)c12 [Example 1.164]" val=99.3
compound="CNc1cc(F)c(F)c2c1[nH]c1ncc(-c3cnc4c(c3)c(=O)c(C(=O)O)cn4C)c(N3CCC(O)CC3)c12 [Example 1.43]" val=39.3

Provide measured CC50 at 3 days value, entry: CNc1cc(F)c(F)c2c1[nH]c1ncc(-c3cnc4c(c3)c(=O)c(C(=O)O)cn4C)c(N3CCC4(CCCN(CCO)C4)C3)c12 (stereo not drawn) [Example 1.194]
72

---

experiment: Lyophilisation solubility assay (LYSA); format: physicochemical; conditions: phosphate buffer, pH 6.5, aqueous buffer, thermodynamic from solid, 0.05 M phosphate buffer, HPLC-UV
measured quantity: solubility thermodynamic (µg/mL)

compound="CNc1cc(F)c(F)c2c1[nH]c1ncc(-c3cnc4c(c3)c(=O)c(C(=O)O)cn4N)c(N3CC[C@H]4CN(C)CC43)c12 (stereo partly drawn)" measured_quantity="solubility thermodynamic" val=174
compound="CCNn1cc(C(=O)O)c(=O)c2cc(-c3cnc4[nH]c5c(NC)cc(F)c(F)c5c4c3N3CC[C@H]4CN(C)CC43)cnc21 (stereo partly drawn)" measured_quantity="solubility thermodynamic" val=138

a = CNc1cc(F)c(F)c2c1[nH]c1ncc(-c3cnc4c(c3)c(=O)c(C(=O)O)cn4C)c(N3CCC(N4CCCC4)CC3)c12
b = CNc1cc(F)c(Cl)c2c1[nH]c1ncc(-c3cnc4c(c3)c(=O)c(C(=O)O)cn4NC)c(N3CC[C@H]4CN(C)CC43)c12 (stereo partly drawn)
c = CNc1cc(F)c(F)c2c1[nH]c1ncc(-c3cnc4c(c3)c(=O)c(C(=O)O)cn4NC)c(N3CCCC(N(C)C)C3)c12 (stereo not drawn)
rank_up(items): orders items by reported solubility thermodynamic in ascending numerical order. API: response body holds the labels in the requested order.
b, c, a

---

test: Lyophilisation solubility assay (LYSA); assay type: physicochemical; conditions: phosphate buffer, pH 6.5, aqueous buffer, thermodynamic from solid, 0.05 M phosphate buffer, HPLC-UV
measured quantity: solubility thermodynamic (µg/mL)

molecule="CNc1cc(F)c(F)c2c1[nH]c1ncc(-c3cnc4c(c3)c(=O)c(C(=O)O)cn4C)c(N3C[C@H]4CCN(C)[C@H]4C3)c12 [Example 3.08A]" measured_quantity="solubility thermodynamic" measurement_unit=µg/mL val=119

P = CNc1cc(F)c(F)c2c1[nH]c1ncc(-c3cnc4c(c3)c(=O)c(C(=O)O)cn4C)c(N3CCN4CCC[C@H]4C3)c12
Q = CNc1cc(Cl)cc2c1[nH]c1ncc(-c3cnc4c(c3)c(=O)c(C(=O)O)cn4C)c(N3CCC(N(C)C)C3)c12 (stereo not drawn)
Response body: label of entry with the larger solubility thermodynamic; valid values P , Q . The response must carry the label of the picked entry.
P

---

system: K. pneumoniae (ATCC10031); assay: 50% growth inhibitory concentration (IC50) determination assay; assay type: cell-based; details: Klebsiella pneumoniae, Iso-Sensitest broth, 0.098 = detection limit
IC50 values, listed per item

Please review the following examples before continuing.
molecule=CNc1cc(F)c(F)c2c1[nH]c1ncc(-c3cnc4c(c3)c(=O)c(C(=O)O)cn4C)c(N3C[C@H](F)[C@@H](N(C)C)C3)c12 measured_quantity=IC50 val="< 0.098 µM"
molecule="CNc1cc(F)cc2c1[nH]c1ncc(-c3cnc4c(c3)c(=O)c(C(=O)O)cn4C)c(N3CCC(CN(C)CCOC)C3)c12 (stereo not shown)" measured_quantity=IC50 val="< 0.098 µM"
molecule="CNc1cc(F)c(F)c2c1[nH]c1ncc(-c3cnc4c(c3)c(=O)c(C(=O)O)cn4C)c(N3CCC4CN(C)CCC43)c12 (stereo not shown)" measured_quantity=IC50 val="0.403 µM"
molecule=CNc1cc(F)c(F)c2c1[nH]c1ncc(-c3cnc4c(c3)c(=O)c(C(=O)O)cn4C)c(N3C[C@H](O)[C@@H](F)C3)c12 measured_quantity=IC50 val="< 0.098 µM"
molecule=CNc1cc(F)c(F)c2c1[nH]c1ncc(-c3cnc4c(c3)c(=O)c(C(=O)O)cn4CCOC)c(N(C)C)c12 measured_quantity=IC50 val="0.238 µM"

Input CNc1cc(F)c(F)c2c1[nH]c1ncc(-c3cnc4c(c3)c(=O)c(C(=O)O)cn4C)c(N3CC[C@H]4CCN(C)C4C3)c12 (stereo partly shown) , output reported IC50.
< 0.098 µM

Please supply the value of reported IC50 for the item CNc1cc(F)c(F)c2c1[nH]c1ncc(-c3cnc4c(c3)c(=O)c(C(=O)O)cn4NC)c(N3CCC4(CCCN4C)C3)c12 (stereo not shown)
< 0.098 µM

Indicate its recorded IC50; the molecule in question is CNc1cc(F)cc2c1[nH]c1ncc(-c3cnc4c(c3)c(=O)c(C(=O)O)cn4NC)c(N3CC4[C@@H](C3)OCCN4C)c12 (stereo partly shown)
< 0.098 µM

For CNc1cc(F)cc2c1[nH]c1ncc(-c3cnc4c(c3)c(=O)c(C(=O)O)cn4C(C)(C)CN3CCCC3)c(N(C)C)c12 , write its IC50.
0.101 µM

Supply reported IC50 belonging to this molecule: CNc1cc(F)c(F)c2c1[nH]c1ncc(-c3cnc4c(c3)c(=O)c(C(=O)O)cn4C)c(N3CCC4(CN(C)CCO4)C3)c12 (stereo not shown)
< 0.098 µM

# return recorded IC50 for entry CCn1cc(C(=O)O)c(=O)c2cc(-c3cnc4[nH]c5c(NC)cc(F)c(F)c5c4c3N(C)C)cnc21
0.132 µM

Look up and report measured IC50 for this entry: CNc1cc(F)cc2c1[nH]c1ncc(-c3cnc4c(c3)c(=O)c(C(=O)O)cn4C)c(N3CC[C@H]4CN(C)CC43)c12 (stereo partly shown)
< 0.098 µM

Output IC50 of CNc1cc(F)c(F)c2c1[nH]c1ncc(-c3cnc4c(c3)c(=O)c(C(=O)O)cn4C)c(N3CC[C@]4(CN(C)CCO4)C3)c12 [Example 3.16B]
< 0.098 µM
